# procedure-text: Particle size and polydispersity index of nanoparticle compositions (Zetasizer Nano ZS)
# Type: physicochemical
# condition-summary: Table 1C; compositions for subcutaneous administration
Measured PDI of individual entries

compound	PDI
CCCCCCCCCCCOC(=O)CCCCCN(CCO)CCCCCCCC(=O)OC(CCCCCCCC)CCCCCCCC	0.16
CCCCCCCCC(CC)OC(=O)CCCCCN(CCO)CCCCCCCC(=O)OC(CCCCCCCC)CCCCCCCC (stereo not shown)	0.13
CCCCCC/C=C\COC(=O)CCCCCCCN(CCO)CCCCCCCC(=O)OC(CCCCCCCC)CCCCCCCC	0.17
CCCCC/C=C\C/C=C\CCCCCCCCC(CCCCCCCC/C=C\C/C=C\CCCCC)OC(=O)CCCN(C)C [MC3, DLin-MC3-DMA, reference compound]	0.09

* * *

# procedure-text: Particle size and polydispersity index of nanoparticle compositions (Zetasizer Nano ZS)
# Format: physicochemical
# condition-summary: Table 1A
Mark class 0 for PDI values under 0.2, and class 1 for everything at or above.

compound	qualitative-label
CCCCCCCCCOC(=O)CCCCCCCN(CCCCCCCC(=O)OC(CCCCCCCC)CCCCCCCC)CCCC(F)(F)F [Compound 107]	class 1
CCCCCCCCCOC(=O)CCCN(CCO)CCCCCCCC(=O)OC(CCCCCCCC)CCCCCCCC [Compound 26]	class 0
CCCCCCCCCOC(=O)CCCCCCCN(CCCCCCCC(=O)OC(CCCCCCCC)CCCCCCCC)CCC(=O)O [Compound 125]	class 0
CCCCCCCCCOC(=O)CCCCCCCN(CCCCCCCC(=O)OC(CCCCCCCC)CCCCCCCC)CCCn1cnc2c(N)ncnc21 [Compound 116]	class 0
CCCCCCCCCOC(=O)CCCCCCCN(CCO)CCCCCCCC(=O)OC(CCC1CC1CCCC)CCC1CC1CCCC (stereo not shown) [Compound 160]	class 0
CCCCCCCCCCCOC(=O)CCCCCN(CCO)CCCCCC(=O)OCCCCCCCCCCC [Compound 141]	class 1

* * *

# procedure-text: Lipid clearance: lipid level in mouse liver tissue (LC-MS/MS)
# Type: in vivo
# condition-summary: CD-1 mouse liver 24 h after 0.5 mg/kg bolus dose mRNA, n = 5 ± S.D.
Measured % dose remaining Mouse liver tissue, 24 h of individual entries
endpoint: % dose remaining Mouse liver tissue, 24 h (%)

compound	observed-measurement
CCCCCCCCC(CCCCCCCC)OC(=O)CCCCCCCN(CCO)CCCCCCCC(=O)OC(CCCCCCCC)CCCCCCCC	68
CCCCC/C=C\C/C=C\CCCCCCCCN(CCO)CCCCCCCC(=O)OC(CCCCCCCC)CCCCCCCC	67
CCCCC/C=C\C/C=C\CCCCCCCCC(CCCCCCCC/C=C\C/C=C\CCCCC)OC(=O)CCCN(C)C [MC3, DLin-MC3-DMA, reference compound]	71
CCCCCCCCCOC(=O)CCCCCCCN(CCO)CCCCCCCC(=O)OC(CCCCCCCC)CCCCCCCC	0

* * *

Measured Osmolality of individual entries
# procedure-text: Nanoparticle characterisation: particle size, polydispersity index, zeta potential
# Type: physicochemical
# condition-summary: nanoparticle composition with hEPO mRNA (Table 30)
# Description: Nanoparticle compositions may be characterized by a variety of methods. For example, microscopy (e.g., transmission electron microscopy or scanning electron microscopy) may be used to examine the morphology and size distribution of a nanoparticle composition. […] The mean size of a nanoparticle composition may be between 10s of nm and 100s of nm, e.g., measured by dynamic light scattering (DLS). […]
endpoint: Osmolality

molecule	observed-measurement
CCCCCCCCCOC(=O)CCCCCCCN(CCO)CCCCCCCC(=O)OC(CCCCCCCC)CCCCCCCC	312 mOsm/kg
CCCCCCCCC(C)OC(=O)CCCCCCCN(CCO)CCCCCCCC(=O)OC(CCCCCCCC)CCCCCCCC (centres unmarked)	311 mOsm/kg
CCCCCCCCCOC(=O)CCCN(CCO)CCCCCCCC(=O)OC(CCCCCCCC)CCCCCCCC	305 mOsm/kg
CCCCC/C=C\C/C=C\CCCCCCCCC(CCCCCCCC/C=C\C/C=C\CCCCC)OC(=O)CCCN(C)C [MC3, DLin-MC3-DMA, reference compound]	318 mOsm/kg
CCCCCCCCCCCOC(=O)CCCCCN(CCO)CCCCCCCC(=O)OC(CCCCCCCC)CCCCCCCC	304 mOsm/kg
